The measurements presented in this section are drawn from patent US20220119540A1.

# system under test: T1, Recombinant human OX40-His protein (human, UniProt P43489 29-214, limits assumed)
# T1 construct: Recombinant antigen protein; also called recombinant human OX-40 protein; human OX-40 protein; not shown: His tag
# T1 sequence (looked up): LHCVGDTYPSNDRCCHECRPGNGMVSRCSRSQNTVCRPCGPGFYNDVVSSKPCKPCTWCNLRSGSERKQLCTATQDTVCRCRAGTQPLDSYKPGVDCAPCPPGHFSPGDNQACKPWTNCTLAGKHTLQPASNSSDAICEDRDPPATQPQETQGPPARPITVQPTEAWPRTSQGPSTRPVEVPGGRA
# assay name: kinetic ranking (RU, 1:1 binding model), prokaryotically expressed antibody product as ligand, OX40-His as analyte
Please go through the items and note down their Kd.
Numbers only, in µM.

Sample records with Kd:
AH02923, prokaryotically expressed antibody product (back-mutation screening) (Fab, V domains shown) VH: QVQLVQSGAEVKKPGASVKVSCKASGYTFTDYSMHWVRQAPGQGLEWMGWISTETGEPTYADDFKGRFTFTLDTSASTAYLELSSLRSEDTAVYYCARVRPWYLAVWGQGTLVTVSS VL: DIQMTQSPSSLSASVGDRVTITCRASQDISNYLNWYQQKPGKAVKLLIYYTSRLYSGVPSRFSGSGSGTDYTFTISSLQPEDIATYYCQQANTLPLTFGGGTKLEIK; 0.0108
AH02917, prokaryotically expressed antibody product (back-mutation screening) (Fab, V domains shown) VH: QVQLVQSGAEVKKPGASVKVSCKASGYTFTDYSMHWVKQAPGQGLEWMGWISTETGEPTYADDFKGRFTITLDTSASTAYMELSSLRSEDTAVYFCARVRPWYLAVWGQGTLVTVSS VL: DIQMTQSPSSLSASVGDRVTITCRASQDISNYLNWYQQKPGKAVKLLIYYTSRLYSGVPSRFSGSGSGTDFTLTISSLQPEDIATYYCQQANTLPLTFGGGTKLEIK; 0.0137
AH02916, prokaryotically expressed antibody product (back-mutation screening) (Fab, V domains shown) VH: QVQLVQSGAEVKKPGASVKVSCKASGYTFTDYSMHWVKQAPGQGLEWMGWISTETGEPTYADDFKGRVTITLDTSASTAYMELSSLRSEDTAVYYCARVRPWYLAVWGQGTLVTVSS VL: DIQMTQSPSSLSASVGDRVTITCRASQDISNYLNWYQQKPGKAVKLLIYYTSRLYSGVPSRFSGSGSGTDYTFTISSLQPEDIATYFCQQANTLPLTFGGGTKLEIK; 0.0157
AH02919, prokaryotically expressed antibody product (back-mutation screening) (Fab, V domains shown) VH: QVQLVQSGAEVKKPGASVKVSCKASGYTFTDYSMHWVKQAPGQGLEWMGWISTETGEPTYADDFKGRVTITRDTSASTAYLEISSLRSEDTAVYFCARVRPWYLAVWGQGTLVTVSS VL: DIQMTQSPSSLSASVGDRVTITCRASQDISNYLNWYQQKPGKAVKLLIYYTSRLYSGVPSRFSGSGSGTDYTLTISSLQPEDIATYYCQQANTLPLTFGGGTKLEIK; 0.0151

API: the following record is the query input.
Fill blank: measured Kd of the binder AH02925, prokaryotically expressed antibody product (back-mutation screening) (Fab, V domains shown) VH: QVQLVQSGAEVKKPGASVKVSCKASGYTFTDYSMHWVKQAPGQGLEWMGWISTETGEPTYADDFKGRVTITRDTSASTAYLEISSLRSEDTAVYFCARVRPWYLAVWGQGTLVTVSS VL: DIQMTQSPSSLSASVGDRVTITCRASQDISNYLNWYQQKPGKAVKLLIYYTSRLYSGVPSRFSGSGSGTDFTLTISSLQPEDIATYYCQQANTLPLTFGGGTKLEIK is ____.
0.0149
